Origin of the recorded values: patent EP4471049A1

Molecular target: T1, Nluc-IL23R fusion protein (human, UniProt Q5VWK5 22-629)
T1 construct: range 22-629; expressed with a secretion signal in HEK293 cells; used as crude membrane preparation; also called hIL-23R; human IL-23R; not shown: Nanoluc protein from the expression plasmid N1371 (Promega), N-terminal of IL-23R
T1 sequence (looked up): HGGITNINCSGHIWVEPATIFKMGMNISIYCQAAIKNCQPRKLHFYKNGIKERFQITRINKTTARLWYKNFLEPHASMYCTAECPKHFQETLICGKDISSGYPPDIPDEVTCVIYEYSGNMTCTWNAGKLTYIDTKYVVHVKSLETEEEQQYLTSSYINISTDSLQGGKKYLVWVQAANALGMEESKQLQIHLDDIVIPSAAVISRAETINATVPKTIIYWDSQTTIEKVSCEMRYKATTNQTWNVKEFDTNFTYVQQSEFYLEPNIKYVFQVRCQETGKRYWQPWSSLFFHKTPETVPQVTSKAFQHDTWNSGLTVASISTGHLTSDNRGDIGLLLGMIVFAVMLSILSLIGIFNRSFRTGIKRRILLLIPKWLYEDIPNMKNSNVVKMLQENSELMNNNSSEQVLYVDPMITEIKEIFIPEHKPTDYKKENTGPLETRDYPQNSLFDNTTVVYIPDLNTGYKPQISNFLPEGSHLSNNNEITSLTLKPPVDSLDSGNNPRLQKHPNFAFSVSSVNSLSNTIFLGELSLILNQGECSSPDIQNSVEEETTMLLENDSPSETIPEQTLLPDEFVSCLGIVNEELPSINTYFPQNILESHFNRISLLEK
Test: BRET competition vs TAMRA-labelled peptide, Nluc-IL23R membranes
*1 amine or outer side, *2 acyl side, *3 side chain or, on linkers, in order; H or OH if unused. Bridges are numbered along the chain shown (N, C = ends). [ ]: non-standard residue; d: D form. 4‑Aminomethyl‑phenylacetyl = 4-aminomethyl-phenylacetyl unit, its amine closes the lactam, O=C(Cc1ccc(CN[*:1])cc1)[*:2]; 2Nal = N[C@@H](Cc1ccc2ccccc2c1)C(=O)O; AEF = NCCOc1ccc(C[C@H](N)C(=O)O)cc1; 3Pal = N[C@@H](Cc1cccnc1)C(=O)O; αMeL = CC(C)C[C@](C)(N)C(=O)O; Orn = NCCC[C@H](N)C(=O)O; Dab = NCC[C@H](N)C(=O)O

{"Binder": "[4‑Aminomethyl‑phenylacetyl]SEW[Orn][Dab][AEF][2Nal][αMeL]E[Dab][3Pal]-NHMe (lactam N-10, 3-6; SMILES CNC(=O)[C@H](Cc1cccnc1)NC(=O)[C@H](CCN)NC(=O)[C@@H]1CCC(=O)NCc2ccc(cc2)CC(=O)N[C@@H](CO)C(=O)N[C@H]2CCC(=O)NCC[C@H](NC(=O)[C@H](CCCN)NC(=O)[C@H](Cc3c[nH]c4ccccc34)NC2=O)C(=O)N[C@@H](Cc2ccc(OCCN)cc2)C(=O)N[C@@H](Cc2ccc3ccccc3c2)C(=O)N[C@@](C)(CC(C)C)C(=O)N1) [Compound 28]", "% displacement (hIL-23R binding) (%)": 97}
